Biological target: Amine oxidase [flavin-containing] A (Homo sapiens, UniProt P21397)
Sequence (P21397 whole entry): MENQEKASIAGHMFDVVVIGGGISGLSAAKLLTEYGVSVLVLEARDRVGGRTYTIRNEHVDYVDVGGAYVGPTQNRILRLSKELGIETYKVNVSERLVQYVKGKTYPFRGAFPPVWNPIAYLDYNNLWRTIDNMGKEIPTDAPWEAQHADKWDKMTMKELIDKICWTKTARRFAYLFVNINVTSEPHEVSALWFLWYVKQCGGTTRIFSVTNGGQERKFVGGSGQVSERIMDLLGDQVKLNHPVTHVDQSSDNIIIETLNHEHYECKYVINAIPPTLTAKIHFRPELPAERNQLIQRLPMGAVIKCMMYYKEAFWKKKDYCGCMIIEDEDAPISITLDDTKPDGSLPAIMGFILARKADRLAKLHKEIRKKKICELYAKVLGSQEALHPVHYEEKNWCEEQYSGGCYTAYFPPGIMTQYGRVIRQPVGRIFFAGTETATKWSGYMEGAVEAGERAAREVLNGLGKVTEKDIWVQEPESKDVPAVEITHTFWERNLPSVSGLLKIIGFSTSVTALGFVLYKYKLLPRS
Assay: DRUGMATRIX: Monoamine Oxidase MAO-A enzyme inhibition (substrate: Kynuramine)
Set-up: species or system BTI-TN-5B1-4
Conditions: bti-tn-5b1-4; Not Active = under 50% inhibition at 10 µM
MEASUREMENT KIND: IC50

Here is how some molecules turned out for IC50.
MOLECULE	IC50
Cc1ccccc1N1CCN(CCc2nnc3n2CCCC3)CC1	Not Active
CN(N=O)C(=O)N[C@@H](C=O)[C@@H](O)[C@H](O)[C@H](O)CO	Not Active
Clc1ccc(C(c2ccccc2Cl)C(Cl)Cl)cc1 (stereo not given)	Not Active
CCCSc1ccc2nc(NC(=O)OC)[nH]c2c1	Not Active

Data request: Read off the recorded IC50 for CC1CN(c2cc3c(cc2F)c(=O)c(C(=O)O)cn3-c2ccc(F)cc2F)CCN1 (stereo not given)
Data returned: Not Active

Data request: Read off the recorded IC50 for CC[N+](CC)(CC)CCOc1cccc(OCC[N+](CC)(CC)CC)c1OCC[N+](CC)(CC)CC.[I-].[I-].[I-] [GALLAMINE TRIETHIODIDE]
Data returned: Not Active

Data request: Read off the recorded IC50 for O=C(O)c1cn(C2CC2)c2cc(N3CCNCC3)c(F)cc2c1=O
Data returned: Not Active

Data request: Read off the recorded IC50 for COc1ccc2cc(CC(=O)O)ccc2c1
Data returned: Not Active

Data request: Read off the recorded IC50 for CCOC(=O)c1ccc(N)cc1
Data returned: Not Active
